Values from ChEMBL document CHEMBL1126550

pIC50: −log10 of the molar value.
Consider compounds characterized by their pIC50 with UniProt Q00788.
Sequence (Q00788 whole entry): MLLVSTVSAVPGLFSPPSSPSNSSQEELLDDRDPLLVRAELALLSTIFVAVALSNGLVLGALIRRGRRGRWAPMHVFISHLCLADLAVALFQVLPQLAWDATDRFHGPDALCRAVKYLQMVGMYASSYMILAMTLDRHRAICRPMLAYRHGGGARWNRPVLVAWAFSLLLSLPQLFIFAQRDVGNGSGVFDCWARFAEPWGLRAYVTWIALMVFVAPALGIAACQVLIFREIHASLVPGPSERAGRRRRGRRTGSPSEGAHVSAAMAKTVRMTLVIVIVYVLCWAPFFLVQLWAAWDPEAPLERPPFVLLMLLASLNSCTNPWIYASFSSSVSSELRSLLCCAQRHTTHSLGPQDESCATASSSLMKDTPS
readout name: pIC50

>>> df
                                   compound     system_name  endpoint_value
0  CC1(C)[C@@H]2CC[C@@]1(CS(=O)(=O)N1CCC3(CCc4ccccc43)CC1)[C@@H](N1C(=O)NC(CC(=O)Nc3nn[nH]n3)C1=O)C2 (stereo partly drawn)  UniProt Q00788            5.17

(A) Cn1cncc1CC(=O)N[C@H]1C[C@H]2CC[C@]1(CS(=O)(=O)N1CCC3(CCc4ccccc43)CC1)C2(C)C
(B) CC1(C)[C@@H]2CC[C@@]1(CS(=O)(=O)N1CCC3(C=Cc4ccccc43)CC1)[C@@](O)(CNC(=O)[C@@H](N)CCC(N)=O)C2
Between A and B , which one shows the smaller pIC50 number? Answer with the label corresponding to your selection. A
